target: Epidermal growth factor receptor (Homo sapiens, UniProt P00533)
Sequence (P00533 whole entry): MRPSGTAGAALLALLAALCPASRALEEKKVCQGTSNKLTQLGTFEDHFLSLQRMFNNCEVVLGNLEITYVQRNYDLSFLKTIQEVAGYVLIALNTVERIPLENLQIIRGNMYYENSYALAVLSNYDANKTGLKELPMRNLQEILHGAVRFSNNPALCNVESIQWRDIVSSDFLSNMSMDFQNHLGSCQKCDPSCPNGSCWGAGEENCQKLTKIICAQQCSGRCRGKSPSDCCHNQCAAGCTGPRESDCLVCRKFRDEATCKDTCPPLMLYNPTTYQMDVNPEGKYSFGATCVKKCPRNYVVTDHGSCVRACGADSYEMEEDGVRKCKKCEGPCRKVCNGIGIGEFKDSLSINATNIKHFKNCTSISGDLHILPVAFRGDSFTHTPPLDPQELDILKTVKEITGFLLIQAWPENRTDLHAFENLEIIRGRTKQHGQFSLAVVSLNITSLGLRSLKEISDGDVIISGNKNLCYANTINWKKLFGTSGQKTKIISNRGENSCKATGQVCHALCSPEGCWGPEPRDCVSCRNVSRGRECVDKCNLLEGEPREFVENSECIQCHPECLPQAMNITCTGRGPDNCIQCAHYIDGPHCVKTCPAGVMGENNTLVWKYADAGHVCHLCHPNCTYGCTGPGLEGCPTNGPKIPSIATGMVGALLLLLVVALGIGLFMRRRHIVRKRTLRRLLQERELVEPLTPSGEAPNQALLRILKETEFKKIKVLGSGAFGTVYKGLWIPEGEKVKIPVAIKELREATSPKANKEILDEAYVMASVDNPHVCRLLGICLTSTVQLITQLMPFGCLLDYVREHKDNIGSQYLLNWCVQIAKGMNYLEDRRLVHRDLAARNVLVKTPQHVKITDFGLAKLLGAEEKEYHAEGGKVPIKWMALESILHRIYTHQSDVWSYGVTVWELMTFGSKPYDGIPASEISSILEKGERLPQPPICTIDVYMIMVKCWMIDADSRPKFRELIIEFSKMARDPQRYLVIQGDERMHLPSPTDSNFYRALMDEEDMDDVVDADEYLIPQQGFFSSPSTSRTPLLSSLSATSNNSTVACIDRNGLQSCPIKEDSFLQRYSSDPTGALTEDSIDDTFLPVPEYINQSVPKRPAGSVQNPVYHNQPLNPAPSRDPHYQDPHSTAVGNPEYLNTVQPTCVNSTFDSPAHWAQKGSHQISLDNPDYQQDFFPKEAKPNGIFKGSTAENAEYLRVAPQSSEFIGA
ASSAY_METRIC: Kd (nM)
I only need the number, in nM, no unit after it.

Reported Epidermal growth factor receptor (Homo sapiens, UniProt P00533) Kd for item COc1cc2c(Nc3ccc(NC(=O)c4ccccc4)cc3)ncnc2cc1OCCCN1CCOCC1 was 220

* * *

Entries with their measured pIC50, system Aurora kinase B/Inner centromere protein (Homo sapiens, UniProt Q96GD4):
Schema: pIC50 number; meaning minus log10 of the concentration expressed in molar units.

# SAMPLE_SMILES, VALUE_MEASURED
data = [
    ("O=C(Nc1ccccc1)c1ccc(Nc2ncnc3[nH]ccc23)cc1", 7.30),
    ("Cn1nccc1-c1cc2c(Nc3ccc(OCc4ccccc4)cc3)ncnc2[nH]1", 5.96),
]

Now for another entry.
Hey, Aurora kinase B/Inner centromere protein (Homo sapiens, UniProt Q96GD4) data for Brc1cccc(Nc2ncnc3[nH]ccc23)c1 : pIC50 came out at 5.42

* * *

target: Aurora kinase B (Homo sapiens, UniProt Q96GD4); assay: Inhibition of AURKB (unknown origin) by nanoBRET assay
Sequence (Q96GD4 whole entry): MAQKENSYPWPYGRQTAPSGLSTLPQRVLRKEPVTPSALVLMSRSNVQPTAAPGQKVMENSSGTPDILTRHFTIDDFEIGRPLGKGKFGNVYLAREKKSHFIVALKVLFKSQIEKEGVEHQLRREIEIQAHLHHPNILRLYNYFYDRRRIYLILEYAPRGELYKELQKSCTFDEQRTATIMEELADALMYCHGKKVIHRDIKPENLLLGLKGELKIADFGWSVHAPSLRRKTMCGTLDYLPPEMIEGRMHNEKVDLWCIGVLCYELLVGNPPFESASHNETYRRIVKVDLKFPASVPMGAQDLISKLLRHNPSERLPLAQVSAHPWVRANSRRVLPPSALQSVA
ASSAY_METRIC: IC50 (µM)
# output: bare number, implied unit µM

For record O=C(Nc1ccccc1)c1ccc(Nc2ncnc3[nH]ccc23)cc1 the listed IC50 is 14.7

* * *

biological target: Aurora kinase B (Homo sapiens)
ASSAY_METRIC: Kd

Please fill in: Kd reported for Cn1nccc1-c1cc2c(Nc3ccc(OCc4ccccc4)cc3)ncnc2[nH]1 = > 30 µM
